# System: IL-2-FL/Gaussia Luciferase
# protocol description: Dox Induced IL2-FL-Gluc Assay
# Type: cell-based
# experimental setup: 24 hr, doxycycline-induced, 293FRT/TO cells; read-out: 24 hr Dox Inducible IL2FLGIuc 293FRT/TO: Mean IC50
# Method: Transfected cells were selected for resistance to the selectable markers Hygromycin and Blasticidin to create a stable cell line that contained the IL-2-FL/Gaussia Luciferase cDNA insert whose expression was regulated under the T-RExTM system. The day before assay, cells were trypsinized and plated in 384-well tissue culture plates. The next day, compound dilutions in DMSO/media containing doxycycline were added to the wells and incubated at 37° C., 5% CO2. […]
pIC50: −log10 of the molar value.
measured endpoint: pIC50

Name the recorded pIC50 of the compound listed here: CCc1cc(NC(=O)c2cccn2Cc2ccncc2)ccc1C < 4.60

Name the recorded pIC50 of the compound listed here: CC(C)c1csc(NC(=O)[C@@H]2CCCN2C(=O)c2ccncc2)n1 < 4.60

New cases:
Name the recorded pIC50 of the compound listed here: CCc1nc(NC(=O)[C@H]2CCCN2Cc2ccncc2)sc1C < 4.60

---

# Test system: IL-2-FL/Gaussia Luciferase
# protocol description: Dox Induced IL2-FL-Gluc Assay
# Format: cell-based
# experimental setup: 24 hr doxycycline induction, 293FRT/TO cells, Gaussia luciferase signal; read-out: 24 hr Dox Inducible IL2FLGIuc 293FRT/TO: Mean IC50
measured endpoint: IC50 (µM)

Worked examples, 3 compounds total:
Name the recorded IC50 of the compound listed here: O=C(Nc1nc(C2=CCN(c3ccccc3)CC2)cs1)c1cccn1Cc1ccncc1 [Compound A258] 14.5

Name the recorded IC50 of the compound listed here: O=C(Nc1nc(-c2ccccc2)cs1)c1cccn1Cc1ccncc1 [Compound A216] 1.56

Name the recorded IC50 of the compound listed here: O=C(Nc1nc(/C=C/c2cnc3c(c2)OCO3)cs1)c1cccn1Cc1ccncc1 [Compound A274] 3.74

P. O=C(Nc1nc(/C=C/C2CCOCC2)cs1)c1cccn1Cc1ccncc1 [Compound A153]
Q. CCc1cnccc1Cn1cccc1C(=O)Nc1nc(C(C)(C)OC(C)C)cs1 [Compound A250]
Parameter check: reported IC50 is higher for which label, P or Q ? Indicate which entry you chose by stating its label. Q

a. Cc1nc(NC(=O)c2cccn2Cc2ccncc2)sc1F [Compound A42]
b. COc1ccc(/C=C/c2csc(NC(=O)c3cccn3Cc3ccncc3)n2)c(F)c1 [Compound A241]
c. CC(C)(C)c1csc(NC(=O)c2cccn2Cc2ccncc2)n1 [Compound A45]
Task for the reader: rank each entry by its IC50, from the minimum upward. Response field: labels, in requested order. b, c, a

1. CC(C)OC(C)(C)c1csc(NC(=O)c2cccn2Cc2ccncc2NCc2ccccc2)n1 [Compound A212]
2. CC(C)OC(C)(C)c1nc(NC(=O)c2cccn2Cc2ccncc2)sc1Br [Compound A30]
Given the two records 1 and 2 , choose the one whose IC50 value is lower. Indicate which entry you chose by stating its label. 2
(2: 0.927 µM, 1: 4.57 µM)

---

# Test system: HER3-ss+4aa/Gaussia Luciferase
# protocol description: Dox-Induced Her3-ss-Gluc Assay
# Type: cell-based
# experimental setup: 24 hr doxycycline induction, 293FRT/TO cells, Gaussia luciferase signal; read-out: 24 hr Dox Inducible Her3(ss + 4)Gluc 293FRT/TO: Mean IC50
measured endpoint: IC50 (µM)

I. CC(C)(OCc1ccccc1)c1csc(NC(=O)c2cccn2Cc2ccncc2)n1
II. CC(C)(CCc1ccccn1)c1csc(NC(=O)c2cccn2Cc2ccncc2)n1
Parameter check: reported IC50 is higher for which label, I or II ? Indicate which entry you chose by stating its label. II

A. COc1ccc(/C=C/c2csc(NC(=O)c3cccn3Cc3ccncc3)n2)c(F)c1
B. O=C(Nc1nc(C2=CCN(c3ccccc3)CC2)cs1)c1cccn1Cc1ccncc1
C. COc1ccccc1C#Cc1csc(NC(=O)c2cccn2Cc2ccncc2)n1
D. O=C(Nc1nc(/C=C\c2ccccc2)cs1)c1cccn1Cc1ccncc1
Task for the reader: rank each entry by its IC50, from the minimum upward. Response field: labels, in requested order. A, D, C, B

---

# Tested on: HER3-ss+4aa/Gaussia Luciferase
# protocol description: Dox-Induced Her3-ss-Gluc Assay
# Type: cell-based
# experimental setup: 24 hr doxycycline induction, 293FRT/TO cells, Gaussia luciferase signal; read-out: 24 hr Dox Inducible Her3(ss + 4)Gluc 293FRT/TO: Mean IC50
measured endpoint: IC50 (nM)

Worked examples, 5 compounds total:
Name the recorded IC50 of the compound listed here: CC(C)OC(C)(C)c1nc(NC(=O)c2cccn2Cc2ccncc2)sc1Br 809

Name the recorded IC50 of the compound listed here: CC(C)(OCC1CCCCC1)c1csc(NC(=O)c2cccn2Cc2ccncc2)n1 93

Name the recorded IC50 of the compound listed here: O=C(Nc1nc(C2CC2c2ccccc2)cs1)c1cccn1CCCc1ccncc1 (centres unmarked) 720

Name the recorded IC50 of the compound listed here: O=C(Nc1nc(/C=C/C2CCCOC2)cs1)c1cccn1Cc1ccncc1 (centres unmarked) 2600

Name the recorded IC50 of the compound listed here: O=C(Nc1nc([C@H]2CCCN2c2ccccc2)cs1)c1cccn1Cc1ccncc1 32

a. CC(C)(C)c1csc(NC(=O)c2cccn2Cc2ccncc2Cl)n1
b. O=C(Nc1nc(C2=CCC(c3ccccc3)CC2)cs1)c1cccn1Cc1ccncc1 (centres unmarked)
Given the two records a and b , choose the one whose IC50 value is lower. Indicate which entry you chose by stating its label. b

I. CC(C)OC(C)(C)c1csc(NC(=O)c2cccn2Cc2ccncc2NCc2ccccc2)n1
II. O=C(Nc1nc(/C=C/C2CCOCC2)cs1)c1cccn1Cc1ccncc1
Given the two records I and II , choose the one whose IC50 value is lower. Indicate which entry you chose by stating its label. II
(II: 1550 nM, I: 4200 nM)

---

# Test system: HER3-ss+4aa/Gaussia Luciferase
# protocol description: Dox-Induced Her3-ss-Gluc Assay
# Type: cell-based
# experimental setup: 24 hr doxycycline induction, 293FRT/TO cells, Gaussia luciferase signal; read-out: 24 hr Dox Inducible Her3(ss + 4)Gluc 293FRT/TO: Mean IC50
measured endpoint: IC50 (nM)

Worked examples, 5 compounds total:
Lab note: HER3-ss+4aa/Gaussia Luciferase assay, enter IC50 for CC(C)OC(C)(C)c1csc(NC(=O)c2cccn2CCCc2ccncc2F)n1 here 199

Lab note: HER3-ss+4aa/Gaussia Luciferase assay, enter IC50 for CC(F)(F)c1csc(NC(=O)c2cccn2Cc2ccncc2)n1 here 1240

Lab note: HER3-ss+4aa/Gaussia Luciferase assay, enter IC50 for COc1ccc(/C=C/c2csc(NC(=O)c3cccn3Cc3ccncc3)n2)nc1 here 1570

Lab note: HER3-ss+4aa/Gaussia Luciferase assay, enter IC50 for O=C(Nc1nc2c(s1)CCCC2)c1cccn1Cc1ccncc1 here 2840

Lab note: HER3-ss+4aa/Gaussia Luciferase assay, enter IC50 for O=C(Nc1nc([C@@H]2CCN(Cc3ccccc3)C2)cs1)c1cccn1Cc1ccncc1 here 5280

A. O=C(Nc1nc([C@H]2CCN(c3ccccc3)C2)cs1)c1cccn1Cc1ccncc1
B. CC(C)OC(C)(C)c1csc(NC(=O)c2cccn2Cc2cc(F)nc(F)c2)n1
Parameter check: reported IC50 is higher for which label, A or B ? Indicate which entry you chose by stating its label. B
(B: 1140 nM, A: 648 nM)

---

Each item that follows carries a reported pIC50.
# System: HER3-ss+4aa/Gaussia Luciferase
# protocol description: Dox-Induced Her3-ss-Gluc Assay
# Format: cell-based
# experimental setup: 24 hr doxycycline induction, 293FRT/TO cells, Gaussia luciferase signal; read-out: 24 hr Dox Inducible Her3(ss + 4)Gluc 293FRT/TO: Mean IC50
pIC50: −log10 of the molar value.

Name the recorded pIC50 of the compound listed here: CC(C)OC(C)(C)c1csc(NC(=O)c2cccn2CC2CCN(C)CC2)n1 < 4.60

Name the recorded pIC50 of the compound listed here: COc1cccc(/C=C/c2csc(NC(=O)c3cccn3Cc3ccncc3)n2)c1 6.02

New cases:
Name the recorded pIC50 of the compound listed here: COCc1cnc(NC(=O)c2cccn2Cc2ccncc2)s1 < 4.60

---

# System: PD1-ss+10aa/Gaussia Luciferase
# protocol description: Dox-Induced PD1-ss-Gluc Assay
# Type: cell-based
# experimental setup: 24 hr doxycycline induction, 293FRT/TO cells, Gaussia luciferase signal; read-out: 24 hr Dox Inducible PD1ssGluc 293FRT/TO: Mean IC50
pIC50: −log10 of the molar value.
Each item that follows carries a reported pIC50.

Worked examples, 2 molecules total:
Name the recorded pIC50 of the molecule listed here: CC(C)OC(C)(C)c1csc(NC(=O)c2cccn2Cc2ccn(C)c(=O)c2)n1 [Compound A127] < 4.60

Name the recorded pIC50 of the molecule listed here: CC(C)c1csc(CNC(=O)c2cccn2Cc2ccncc2)n1 [Compound A117] < 4.60

Now, please, on to the next molecule.
Name the recorded pIC50 of the molecule listed here: CCc1nc(NC(=O)c2cccn2Cc2cccnc2)sc1C [Compound A131] < 4.60
